test system: PEX405 cells; experiment: Catalase import immunofluorescence, high-content screening (% importing cells); format: cell-based, human; settings: PEX405 cells, 1.3 µM, 3 days
Rule: % Importing cells below 3% gives Satisfied. Equal to or above 3% gives Not satisfied.

Q: is_below(% Importing cells, 3%) for CCCCNNC(=O)c1ccc(-c2cccc(F)c2F)cc1 [SR-4370] ?
Ans: Not satisfied

Q: is_below(% Importing cells, 3%) for CC(C)(CNC(=O)c1cccc(-c2noc(C(F)(F)F)n2)c1)c1coc(-c2ccccc2)n1 [TMP195] ?
Ans: Satisfied

Q: is_below(% Importing cells, 3%) for O=C(CCCCCCC(=O)Nc1ccc(CN[C@H](C(=O)OC2CCCC2)c2ccccc2)cc1)NO [Tefinostat] ?
Ans: Not satisfied

Q: is_below(% Importing cells, 3%) for O=C(NO)c1ccc(CN2CCCc3cc(Cl)ccc32)cc1 [SW-100] ?
Ans: Not satisfied

Q: is_below(% Importing cells, 3%) for Nc1ccccc1NC(=O)c1ccc(CCCC(=O)Nc2ccc([C@@H]3C[C@H]3N)cc2)cc1 [Corin] ?
Ans: Not satisfied

Q: is_below(% Importing cells, 3%) for O=C(CCCCCCNC(=O)c1cnc(N(c2ccccc2)c2ccccc2)nc1)NO [Ricolinostat] ?
Ans: Not satisfied
